TARGET DESC: cGMP-dependent protein kinase 1 (Homo sapiens, UniProt Q13976)
Sequence (Q13976 whole entry): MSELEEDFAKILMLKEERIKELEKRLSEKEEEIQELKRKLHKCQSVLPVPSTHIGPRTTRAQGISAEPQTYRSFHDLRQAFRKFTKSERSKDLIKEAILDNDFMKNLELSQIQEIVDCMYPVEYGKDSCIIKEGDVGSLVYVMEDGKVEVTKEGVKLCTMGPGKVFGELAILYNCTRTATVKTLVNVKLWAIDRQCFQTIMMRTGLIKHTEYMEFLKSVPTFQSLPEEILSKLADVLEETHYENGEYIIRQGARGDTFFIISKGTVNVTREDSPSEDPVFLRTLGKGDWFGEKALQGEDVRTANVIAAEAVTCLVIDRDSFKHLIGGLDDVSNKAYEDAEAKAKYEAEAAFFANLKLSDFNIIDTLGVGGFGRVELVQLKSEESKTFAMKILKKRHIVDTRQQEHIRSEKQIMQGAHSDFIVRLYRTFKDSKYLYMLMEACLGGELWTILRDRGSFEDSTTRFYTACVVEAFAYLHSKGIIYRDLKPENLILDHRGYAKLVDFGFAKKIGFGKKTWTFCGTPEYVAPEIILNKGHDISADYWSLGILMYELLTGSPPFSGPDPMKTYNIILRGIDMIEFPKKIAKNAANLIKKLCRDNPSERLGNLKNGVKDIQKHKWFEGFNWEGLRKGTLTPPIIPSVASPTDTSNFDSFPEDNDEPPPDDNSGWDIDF
TEST METHOD NOTES: Activation of cGMP induced partially activated state recombinant PKG1alpha (unknown origin) using Glass-tide peptide substrate incubated for 30 mins followed by ATP addition and measured after 2 hr in presence of cGMP by ADP-GLO Max Assay
QUANTITY: pEC50
By convention, pEC50 is the negative base-10 log of a molar concentration.

COMPOUND: Cc1cc(C(=O)O)ccc1C(C)N1CCC[C@H](O[C@H](CO)c2cc(Cl)cc(Cl)c2)[C@@H]1c1ccccc1 (some centres not stated)
pEC50: 4.74
--
COMPOUND: Cc1cc(C(=O)O)ccc1CN1CCC[C@H](O[C@H](CO)c2cc(Cl)cc(Cl)c2)[C@@H]1c1ccc(F)cc1
pEC50: 4.74
--
COMPOUND: Cc1cc(C(=O)O)ccc1CN1C(C)CC[C@H](O[C@H](CO)c2cc(Cl)cc(Cl)c2)[C@@H]1c1ccccc1 (some centres not stated)
pEC50: 4.44
--
COMPOUND: COc1cccc([C@@H](CO)O[C@H]2CCCN(Cc3ccc(C(=O)O)cc3C)[C@H]2c2ccccc2)c1
pEC50: 4.09
--
COMPOUND: Cc1cc(C(=O)O)ccc1CN1CCC[C@@]2(C[C@@H](c3ccccc3)CO2)[C@@H]1c1ccccc1
pEC50: 4.37
--
COMPOUND: CC(=O)NS(=O)(=O)c1ccc(CN2CCC[C@H](O[C@H](CO)c3cc(Cl)cc(Cl)c3)[C@@H]2c2ccccc2)cc1
pEC50: 4.85
--
COMPOUND: Cc1cc(C(=O)O)ccc1CN1CCC[C@H](O[C@H](CO)c2cc(Cl)cc(Cl)c2)[C@@H]1C1CCCCC1
pEC50: 4.19
--
COMPOUND: Cc1cc(C(=O)O)ccc1CN1CCC[C@H](O[C@H](CO)c2cc(Cl)cc(Cl)c2)[C@@H]1c1cccnc1 (racemic)
pEC50: 4.33

Quick one: give measured pEC50 for "Cc1cc(C(=O)O)ccc1CN1CCC[C@H](O[C@H](CO)c2cc(Cl)cc(Cl)c2)[C@@H]1c1cccc(F)c1" 4.92

Quick one: give measured pEC50 for "O=C(O)C12CC(CN3CCC[C@H](O[C@H](CO)c4cc(Cl)cc(Cl)c4)[C@@H]3c3ccccc3)(C1)C2" 4.92
